Test: molar heat capacity at constant pressure
Settings: 333.2 K; 101.33 kPa; Liquid; Small sample (50 mg) DSC
± gives the expanded uncertainty stated by the source.
The entries below come with measured molar heat capacity at constant pressure values attached.
Express the reported value numerically, then name its unit.

Some entries whose results are on file:
INSERT INTO results (molecule, test_readout, reported_result) VALUES
  ('CCn1cc[n+](C)c1.O=S(=O)([O-])C(F)(F)F [1-ethyl-3-methylimidazolium trifluoromethanesulfonate]', 'molar heat capacity at constant pressure', '391.65 ± 51 J/K/mol'),
  ('CCn1cc[n+](C)c1.F[B-](F)(F)F [1-ethyl-3-methylimidazolium tetrafluoroborate]', 'molar heat capacity at constant pressure', '316.36 ± 41 J/K/mol'),
  ('CCn1cc[n+](C)c1.COCCOCCOS(=O)(=O)[O-] [1-ethyl-3-methylimidazolium 2-(2-methoxyethoxy) ethylsulfate]', 'molar heat capacity at constant pressure', '535.7 ± 70 J/K/mol'),
  ('CCOS(=O)(=O)[O-].CCn1cc[n+](C)c1 [1-ethyl-3-methylimidazolium ethyl sulfate]', 'molar heat capacity at constant pressure', '447.3 ± 59 J/K/mol');

State the recorded molar heat capacity at constant pressure for this entry: CCn1cc[n+](C)c1.N#CN=C=[N-] [1-ethyl-3-methylimidazolium dicyanamide]
342.72 ± 45 J/K/mol

----------
Settings: 353.2 K; Liquid; Alternating current cell with electrodes
electrical conductivity strictly less than 4 S/m = True. Otherwise False.

The examples below pair each entry with its known result.
INSERT INTO results (compound, qualitative_label) VALUES
  ('CCOS(=O)(=O)[O-].CCn1cc[n+](C)c1 [1-ethyl-3-methylimidazolium ethyl sulfate]', 'True'),
  ('CCn1cc[n+](C)c1.N#CN=C=[N-] [1-ethyl-3-methylimidazolium dicyanamide]', 'False');

# check: electrical conductivity < 4 S/m for CCn1cc[n+](C)c1.COCCOCCOS(=O)(=O)[O-] [1-ethyl-3-methylimidazolium 2-(2-methoxyethoxy) ethylsulfate]
True

# check: electrical conductivity < 4 S/m for CCn1cc[n+](C)c1.O=S(=O)([O-])C(F)(F)F [1-ethyl-3-methylimidazolium trifluoromethanesulfonate]
True

# check: electrical conductivity < 4 S/m for CCn1cc[n+](C)c1.F[B-](F)(F)F [1-ethyl-3-methylimidazolium tetrafluoroborate]
False

----------
Conditions: 333.2 K; Liquid; Alternating current cell with electrodes
electrical conductivity strictly less than 4 S/m = criterion met. Otherwise criterion not met.

The examples below pair each entry with its known result.
INSERT INTO results (compound, qualitative_label) VALUES
  ('CCn1cc[n+](C)c1.N#CN=C=[N-] [1-ethyl-3-methylimidazolium dicyanamide]', 'criterion not met'),
  ('CCn1cc[n+](C)c1.COCCOCCOS(=O)(=O)[O-] [1-ethyl-3-methylimidazolium 2-(2-methoxyethoxy) ethylsulfate]', 'criterion met'),
  ('CCn1cc[n+](C)c1.O=S(=O)([O-])C(F)(F)F [1-ethyl-3-methylimidazolium trifluoromethanesulfonate]', 'criterion met');

# check: electrical conductivity < 4 S/m for CCOS(=O)(=O)[O-].CCn1cc[n+](C)c1 [1-ethyl-3-methylimidazolium ethyl sulfate]
criterion met

# check: electrical conductivity < 4 S/m for CCn1cc[n+](C)c1.F[B-](F)(F)F [1-ethyl-3-methylimidazolium tetrafluoroborate]
criterion met

----------
Assay: molar heat capacity at constant pressure
Details: 343.2 K; 101.33 kPa; Liquid; Small sample (50 mg) DSC
TEST_READOUT: molar heat capacity at constant pressure (J/K/mol)
Please respond with the number in J/K/mol and leave the unit unwritten.

INSERT INTO assay_data (compound, test_readout, reported_result) VALUES
  ('CCOS(=O)(=O)[O-].CCn1cc[n+](C)c1 [1-ethyl-3-methylimidazolium ethyl sulfate]', 'molar heat capacity at constant pressure', 452.97),
  ('CCn1cc[n+](C)c1.N#CN=C=[N-] [1-ethyl-3-methylimidazolium dicyanamide]', 'molar heat capacity at constant pressure', 346.44),
  ('CCn1cc[n+](C)c1.F[B-](F)(F)F [1-ethyl-3-methylimidazolium tetrafluoroborate]', 'molar heat capacity at constant pressure', 319.33);

State the recorded molar heat capacity at constant pressure for this entry: CCn1cc[n+](C)c1.COCCOCCOS(=O)(=O)[O-] [1-ethyl-3-methylimidazolium 2-(2-methoxyethoxy) ethylsulfate]
538.8

State the recorded molar heat capacity at constant pressure for this entry: CCn1cc[n+](C)c1.O=S(=O)([O-])C(F)(F)F [1-ethyl-3-methylimidazolium trifluoromethanesulfonate]
395.82
